Recorded values, source the supplement of paper PMC10567573.

B1: RHOBTB3 (parent)
chain: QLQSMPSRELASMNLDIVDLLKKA

# Variants of: B1
# assay-notes: protein stability index of a GFP-peptide fusion (GPS, HEK-293T) (PSI 1-6); higher = more stable;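 also: lentivirally expressed fusions sorted by FACS into six bins by GFP to DsRed ratio, PSI derived from sequencing read proportions per bin multiplied by bin number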
# conditions: c terminus: a fixed tail appended
protein stability index values, listed per item
Respond using a number only.

Please review the entries below; each comes with its answer.
biopolymer-sequence: QLQSMPSRELASMNLDIPDLLKKA [V18P]
experimental-value: 3.21
//
biopolymer-sequence: QLISMPSRELASMNLDIVDLLKKA [Q3I]
experimental-value: 3.18
//
biopolymer-sequence: QLFSMPSRELASMNLDIVDLLKKA [Q3F]
experimental-value: 2.62
//
biopolymer-sequence: QLQSMPSHELASMNLDIVDLLKKA [R8H]
experimental-value: 3.94
//
biopolymer-sequence: QLQSMPSRELASMNLDIVDLLKFA [K23F]
experimental-value: 2.33
//
biopolymer-sequence: QLQSMPSRELAFMNLDIVDLLKKA [S12F]
experimental-value: 3.22
//
biopolymer-sequence: QLQSMPSKELASMNLDIVDLLKKA [R8K]
experimental-value: 3.38
//
biopolymer-sequence: ALQSMPSRELASMNLDIVDLLKKA [Q1A]
experimental-value: 3.43

Short answer for QLQSMPSRFLASMNLDIVDLLKKA [E9F] : protein stability index was 2.92

Short answer for QYQSMPSRELASMNLDIVDLLKKA [L2Y] : protein stability index was 4.34

Short answer for QEQSMPSRELASMNLDIVDLLKKA [L2E] : protein stability index was 4.29

Short answer for QLQSMPSRELASMNLDIVDLLKWA [K23W] : protein stability index was 1.3
